Data provenance is patent US5116851A.

# System: Ischemic and Nonischemic Isolated Rat Heart
# METHOD SUMMARY: Isolated perfused rat heart (Langendorff), global ischemia/reperfusion: cardiac function, flow and LDH release
# Design: species or system rat (male Sprague-Dawley)
# RECORDED CONDITIONS: ratio of cardioprotection to cardiodepression, 1 μM; lower = greater selectivity
Entries get a class label from measured LDH/DP. See ranges: L = under 0.3, M = from 0.3 up to 0.6, H = 0.6 and over

Use the examples below as a reference point.
>>> print(df.to_string())
                                   molecule  label
0  CN(C)CCN(C(=O)Cc1ccccc1)c1ccccc1SCc1ccccc1.Cl [Example 4]      H
1  CN(C)CCCN(C(=O)c1ccccc1)c1ccccc1SCc1ccccc1.Cl [Example 7]      L
2  CN(C)CCCCN(C(=O)Cc1ccccc1)c1ccccc1SCc1ccccc1 [Example 5]      M
3  CN(C)CCCN(C(=O)Cc1ccccc1)c1ccccc1OCc1ccccc1.O=C(O)C(=O)O [Example 6]      L
4  COc1ccc([C@@H]2Sc3ccccc3N(CCN(C)C)C(=O)[C@@H]2OC(C)=O)cc1 [Diltiazem, reference compound]      H
5  COc1ccc(CSc2cc(Cl)ccc2N(CCCN(C)C)C(=O)Cc2ccccc2)cc1.Cl [Example 9]      L
6  COc1cc(SCc2ccccc2)c(N(CCCN(C)C)C(=O)Cc2ccccc2)cc1OC [Example 8]      L

Just checking, what class would you give CN(C)CCCN(C(=O)Cc1ccccc1)c1ccccc1SCc1ccc(Cl)cc1 [Example 1] here?
M

====

Attribute: DP (Double Product, HR x LVDP / 1,000)
# System: Ischemic and Nonischemic Isolated Rat Heart
# METHOD SUMMARY: Isolated perfused rat heart (Langendorff), global ischemia/reperfusion: cardiac function, flow and LDH release
# Set-up: species or system rat (male Sprague-Dawley)
# RECORDED CONDITIONS: Preischemia (Post Drug), 1 μM; lower = more cardiodepressant
Where a name gives a salt, the structure may show the parent alone.
Please reply with the number alone, leaving off any unit.

>>> print(df.to_string())
                                   molecule                     target_or_test_system  observed_result
0  COc1cc(SCc2ccccc2)c(N(CCCN(C)C)C(=O)Cc2ccccc2)cc1OC  Ischemic and Nonischemic Isolated Rat Heart               14
1  CN(C)CCCN(C(=O)Cc1ccccc1)c1ccccc1OCc1ccccc1.O=C(O)C(=O)O  Ischemic and Nonischemic Isolated Rat Heart               26
2  CN(C)CCCN(C(=O)Cc1ccccc1)c1ccccc1SCc1ccccc1.Cl  Ischemic and Nonischemic Isolated Rat Heart               19
3  COc1ccc(CSc2ccccc2N(CCCN(C)C)C(=O)Cc2ccccc2)cc1 [Example 2, monohydrochloride]  Ischemic and Nonischemic Isolated Rat Heart               29
4  CN(C)CCCN(C(=O)Cc1ccccc1)c1ccccc1SCc1ccc(Cl)cc1  Ischemic and Nonischemic Isolated Rat Heart               21
5  CN(C)CCCN(C(=O)c1ccccc1)c1ccccc1SCc1ccccc1.Cl  Ischemic and Nonischemic Isolated Rat Heart               29
6  CN(C)CCN(C(=O)Cc1ccccc1)c1ccccc1SCc1ccccc1.Cl  Ischemic and Nonischemic Isolated Rat Heart               30
7  COc1ccc(CSc2cc(Cl)ccc2N(CCCN(C)C)C(=O)Cc2ccccc2)cc1.Cl  Ischemic and Nonischemic Isolated Rat Heart               29
8  CN(C)CCCCN(C(=O)Cc1ccccc1)c1ccccc1SCc1ccccc1  Ischemic and Nonischemic Isolated Rat Heart               29

Now examine the next entry.
Provide value of DP (Double Product, HR x LVDP / 1,000) for this record tested with Ischemic and Nonischemic Isolated Rat Heart: COc1ccc([C@@H]2Sc3ccccc3N(CCN(C)C)C(=O)[C@@H]2OC(C)=O)cc1 [Diltiazem, reference compound]
10
